activity coefficient by entry:
- assay-details: activity coefficient (dimensionless); of the first substance listed, at infinite dilution; xn = mol fraction of the nth substance listed
- conditions-used: 313.15 K; 101.33 kPa; Liquid; Chromatography; x1 = 0
metric: activity coefficient

| compound | readout-value |
| --- | --- |
| CCCCCCCCCCCC [dodecane] + CO[PH](=O)[O-].Cn1cc[n+](C)c1 | 2350 |
| C[N+](=O)[O-] [nitromethane] + CCn1cc[n+](C)c1.CO[PH](=O)[O-] | 0.75 |
| C1COCCO1 [1,4-dioxane] + CCn1cc[n+](C)c1.CO[PH](=O)[O-] | 3.4 |
| ClC(Cl)(Cl)Cl [tetrachloromethane] + CO[PH](=O)[O-].Cn1cc[n+](C)c1 | 6.57 |
| c1ccccc1 [benzene] + CCn1cc[n+](C)c1.CO[PH](=O)[O-] | 3.44 |
| CCC(=O)CC [pentan-3-one] + CCn1cc[n+](C)c1.CO[PH](=O)[O-] | 5.77 |
| Cc1ccccc1C [1,2-dimethylbenzene] + CCn1cc[n+](C)c1.CO[PH](=O)[O-] | 14.4 |
| CCCCCCCCCCCCCC [tetradecane] + CO[PH](=O)[O-].Cn1cc[n+](C)c1 | 3560 |
| CCCCCCCCCC [decane] + CO[PH](=O)[O-].Cn1cc[n+](C)c1 | 1220 |
| CCC[N+](=O)[O-] [1-nitropropane] + CO[PH](=O)[O-].Cn1cc[n+](C)c1 | 3.41 |
| CCC(C)=O [butanone] + CO[PH](=O)[O-].Cn1cc[n+](C)c1 | 5.52 |
| c1ccccc1 [benzene] + CO[PH](=O)[O-].Cn1cc[n+](C)c1 | 5.69 |
| CCCCCCCCCCCC [dodecane] + CCn1cc[n+](C)c1.CO[PH](=O)[O-] | 1740 |
| c1ccsc1 [thiophene] + CO[PH](=O)[O-].Cn1cc[n+](C)c1 | 2.47 |
| C1COCCO1 [1,4-dioxane] + CO[PH](=O)[O-].Cn1cc[n+](C)c1 | 3.73 |

----------
Reported activity coefficient is given for each of the following molecules.
- assay-details: activity coefficient (dimensionless); of the first substance listed, at infinite dilution; xn = mol fraction of the nth substance listed
- conditions-used: 333.15 K; 101.33 kPa; Liquid; Chromatography; x1 = 0
metric: activity coefficient

| molecule | metric | readout-value |
| --- | --- | --- |
| c1ccccc1 [benzene] + CO[PH](=O)[O-].Cn1cc[n+](C)c1 | activity coefficient | 5.52 |
| CCCCCCCCCCCCC [tridecane] + CCn1cc[n+](C)c1.CO[PH](=O)[O-] | activity coefficient | 2130 |
| CCN(CC)CC [triethylamine] + CCn1cc[n+](C)c1.CO[PH](=O)[O-] | activity coefficient | 48 |
| CCCCCCCCCCCCCC [tetradecane] + CO[PH](=O)[O-].Cn1cc[n+](C)c1 | activity coefficient | 2980 |
| CCCCCCCCCCCC [dodecane] + CCn1cc[n+](C)c1.CO[PH](=O)[O-] | activity coefficient | 1540 |
| C[N+](=O)[O-] [nitromethane] + CCn1cc[n+](C)c1.CO[PH](=O)[O-] | activity coefficient | 0.787 |
| ClC(Cl)Cl [trichloromethane] + CCn1cc[n+](C)c1.CO[PH](=O)[O-] | activity coefficient | 0.358 |
| CCCCCCCCCCCCC [tridecane] + CO[PH](=O)[O-].Cn1cc[n+](C)c1 | activity coefficient | 2160 |
| CO [methanol] + CCn1cc[n+](C)c1.CO[PH](=O)[O-] | activity coefficient | 0.072 |
| CCc1ccccc1 [ethylbenzene] + CCn1cc[n+](C)c1.CO[PH](=O)[O-] | activity coefficient | 11.6 |
| ClC(Cl)(Cl)Cl [tetrachloromethane] + CCn1cc[n+](C)c1.CO[PH](=O)[O-] | activity coefficient | 4.96 |
| C#CCCCCC [1-heptyne] + CO[PH](=O)[O-].Cn1cc[n+](C)c1 | activity coefficient | 23.5 |
| CCCC(C)=O [pentan-2-one] + CCn1cc[n+](C)c1.CO[PH](=O)[O-] | activity coefficient | 6.13 |
| C1COCCO1 [1,4-dioxane] + CCn1cc[n+](C)c1.CO[PH](=O)[O-] | activity coefficient | 3.55 |
| CCc1ccccc1 [ethylbenzene] + CO[PH](=O)[O-].Cn1cc[n+](C)c1 | activity coefficient | 21.7 |

----------
Entries and their activity coefficient values follow.
- assay-details: activity coefficient (dimensionless); of the first substance listed, at infinite dilution; xn = mol fraction of the nth substance listed
- conditions-used: 343.15 K; 101.33 kPa; Liquid; Chromatography; x1 = 0
metric: activity coefficient

| compound | metric | readout-value |
| --- | --- | --- |
| c1ccccc1 [benzene] + CO[PH](=O)[O-].Cn1cc[n+](C)c1 | activity coefficient | 5.43 |
| CCCO [propan-1-ol] + CO[PH](=O)[O-].Cn1cc[n+](C)c1 | activity coefficient | 0.25 |
| CCc1ccccc1 [ethylbenzene] + CO[PH](=O)[O-].Cn1cc[n+](C)c1 | activity coefficient | 21.5 |
| C#CCCCC [1-hexyne] + CO[PH](=O)[O-].Cn1cc[n+](C)c1 | activity coefficient | 13.7 |
| CCCCCCCCCCCCC [tridecane] + CO[PH](=O)[O-].Cn1cc[n+](C)c1 | activity coefficient | 2120 |

----------
Known activity coefficient of a selection of molecules
- assay-details: activity coefficient (dimensionless); of the first substance listed, at infinite dilution; xn = mol fraction of the nth substance listed
- conditions-used: 333.15 K; 101.33 kPa; Liquid; Chromatography; x1 = 0
metric: activity coefficient

| molecule | readout-value |
| --- | --- |
| ClC(Cl)Cl [trichloromethane] + CO[PH](=O)[O-].Cn1cc[n+](C)c1 | 0.48 |
| CCCCCCCCCCC [undecane] + CCn1cc[n+](C)c1.CO[PH](=O)[O-] | 1080 |
| ClCCl [dichloromethane] + CO[PH](=O)[O-].Cn1cc[n+](C)c1 | 0.72 |
| CCCCCCCCC [nonane] + CCn1cc[n+](C)c1.CO[PH](=O)[O-] | 485 |
| C#CCCCCC [1-heptyne] + CCn1cc[n+](C)c1.CO[PH](=O)[O-] | 11.1 |
| CCC(C)=O [butanone] + CCn1cc[n+](C)c1.CO[PH](=O)[O-] | 3 |
| c1ccncc1 [pyridine] + CCn1cc[n+](C)c1.CO[PH](=O)[O-] | 1.84 |
| C#CCCCC [1-hexyne] + CO[PH](=O)[O-].Cn1cc[n+](C)c1 | 13.4 |
| CCOCC [diethyl ether] + CCn1cc[n+](C)c1.CO[PH](=O)[O-] | 2.43 |
| CC#N [acetonitrile] + CCn1cc[n+](C)c1.CO[PH](=O)[O-] | 1.11 |
| CCCCCCCCCCCCCC [tetradecane] + CCn1cc[n+](C)c1.CO[PH](=O)[O-] | 3010 |
| Cc1ccccc1 [toluene] + CCn1cc[n+](C)c1.CO[PH](=O)[O-] | 6.63 |
| CC#N [acetonitrile] + CO[PH](=O)[O-].Cn1cc[n+](C)c1 | 1.12 |
| Cc1cccc(C)c1 [1,3-dimethylbenzene] + CCn1cc[n+](C)c1.CO[PH](=O)[O-] | 18.8 |
| Cc1cccc(C)c1 [1,3-dimethylbenzene] + CO[PH](=O)[O-].Cn1cc[n+](C)c1 | 23.6 |
| C1COCCO1 [1,4-dioxane] + CO[PH](=O)[O-].Cn1cc[n+](C)c1 | 3.69 |
| CC1CCCCC1 [methylcyclohexane] + CCn1cc[n+](C)c1.CO[PH](=O)[O-] | 70.8 |
| CCC(=O)CC [pentan-3-one] + CO[PH](=O)[O-].Cn1cc[n+](C)c1 | 10.1 |
